Test system: PPARg homodimer (NR concentration 180 nM)
Test: PBM binding z-score (relative to random genomic background probes); higher = stronger binding; sequences stand for … in GC…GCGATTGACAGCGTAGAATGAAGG
Decision: PBM binding z-score compared against 1; not below it gives Satisfied, below it gives Not satisfied.

primary_sequence	classification
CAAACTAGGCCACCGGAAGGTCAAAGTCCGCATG	Satisfied
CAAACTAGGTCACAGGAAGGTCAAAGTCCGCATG	Satisfied
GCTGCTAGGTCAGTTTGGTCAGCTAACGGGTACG	Not satisfied
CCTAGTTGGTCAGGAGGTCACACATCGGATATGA	Satisfied
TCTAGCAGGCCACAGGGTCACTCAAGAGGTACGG	Satisfied
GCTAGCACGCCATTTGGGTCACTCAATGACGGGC	Not satisfied
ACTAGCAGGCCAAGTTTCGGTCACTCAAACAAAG	Not satisfied
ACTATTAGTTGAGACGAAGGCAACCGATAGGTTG	Not satisfied
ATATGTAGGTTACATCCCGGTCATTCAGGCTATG	Satisfied
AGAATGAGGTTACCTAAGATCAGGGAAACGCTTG	Satisfied
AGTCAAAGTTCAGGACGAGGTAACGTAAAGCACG	Satisfied

###

Tested on: PPARg DBDmut:RXRa IVT, anti-PPARg (DBD mutation: PPARg1 K132A/R137A, NR concentration 270 nM, RXRa partner concentration 90 nM)
Experiment: PBM binding z-score (relative to random genomic background probes); higher = stronger binding; sequences stand for … in GC…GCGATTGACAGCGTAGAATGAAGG

primary_sequence	PBM binding z-score
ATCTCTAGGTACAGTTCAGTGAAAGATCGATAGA	1.18
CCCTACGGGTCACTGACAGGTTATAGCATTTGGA	-0.15
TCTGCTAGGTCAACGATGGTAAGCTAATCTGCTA	0.49
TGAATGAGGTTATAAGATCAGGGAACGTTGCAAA	0.481
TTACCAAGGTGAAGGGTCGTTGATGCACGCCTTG	0.187
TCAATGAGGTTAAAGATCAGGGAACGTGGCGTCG	0.383
CAAACTAGGTCACAGAGGTCAAATTCCGTGCGTA	8.04
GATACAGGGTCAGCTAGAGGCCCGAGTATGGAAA	-0.156
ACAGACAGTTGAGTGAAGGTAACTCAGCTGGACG	-0.108
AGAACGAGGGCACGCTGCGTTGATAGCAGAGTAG	0.425
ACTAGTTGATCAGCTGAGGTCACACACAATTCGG	0.806
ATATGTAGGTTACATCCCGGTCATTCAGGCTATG	2.01

###

Test system: RARb:RXRa (NR concentration 270 nM, RXRa partner concentration 90 nM)
Experiment: PBM binding z-score (relative to random genomic background probes); higher = stronger binding; sequences stand for … in GC…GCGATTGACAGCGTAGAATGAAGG
Decision: PBM binding z-score compared against 2; not below it gives condition met, below it gives condition not met.

primary_sequence	classification
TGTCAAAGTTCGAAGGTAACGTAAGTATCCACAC	condition met
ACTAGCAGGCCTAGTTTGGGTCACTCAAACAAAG	condition not met
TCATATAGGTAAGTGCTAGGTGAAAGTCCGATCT	condition not met
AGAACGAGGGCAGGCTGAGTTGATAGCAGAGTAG	condition not met
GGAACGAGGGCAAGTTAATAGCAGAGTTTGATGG	condition met

Origin of measurements: the supplement of paper PMC6555819
